system: NCI-H1666; assay: relative viability (nuclei count vs DMSO), 5 days (fraction); higher = more cells survive; details: first compound 0.8 µM
// relative viability lookup, one value per entry
experimental endpoint: relative viability

{"columns": ["compound", "reported"],
 "data": [
  ["Nc1cccc2c1CN(C1CCC(=O)NC1=O)C2=O (stereo unspecified) [Lenalidomide] + O=C(CCCCCCC(=O)Nc1ccccc1)NO [Vorinostat] (partner 1 µM)", 1.01],
  ["Nc1cccc2c1CN(C1CCC(=O)NC1=O)C2=O (stereo unspecified) [Lenalidomide] + Nc1nc2[nH]cc(CCc3ccc(C(=O)N[C@@H](CCC(=O)O)C(=O)O)cc3)c2c(=O)[nH]1 [Pemetrexed] (partner 0.2 µM)", 0.878],
  ["Nc1cccc2c1CN(C1CCC(=O)NC1=O)C2=O (stereo unspecified) [Lenalidomide] + Nc1ncn([C@H]2C[C@H](O)[C@@H](CO)O2)c(=O)n1 [Decitabine] (partner 2 µM)", 0.528],
  ["Nc1cccc2c1CN(C1CCC(=O)NC1=O)C2=O (stereo unspecified) [Lenalidomide] + NC(=O)Nc1cc(-c2cccc(F)c2)sc1C(=O)N[C@H]1CCCNC1 [AZD7762] (partner 0.2 µM)", 0.716],
  ["Nc1cccc2c1CN(C1CCC(=O)NC1=O)C2=O (stereo unspecified) [Lenalidomide] + CC(=O)Nc1cccc(-n2c(=O)n(C3CC3)c(=O)c3c(Nc4ccc(I)cc4F)n(C)c(=O)c(C)c32)c1 [Trametinib] (partner 0.02 µM)", 0.765],
  ["Nc1cccc2c1CN(C1CCC(=O)NC1=O)C2=O (stereo unspecified) [Lenalidomide] + C[C@@H](Oc1cc(-c2cnn(C3CCNCC3)c2)cnc1N)c1c(Cl)ccc(F)c1Cl [Crizotinib] (partner 1 µM)", 0.807]
]}

Data provenance: the supplement of paper PMC10307832
